target-or-test-system: recombinant full-length CHIP-K30A (UniProt Q9UNE7 1-303, K30A)
Sequence (Q9UNE7 whole entry K30A): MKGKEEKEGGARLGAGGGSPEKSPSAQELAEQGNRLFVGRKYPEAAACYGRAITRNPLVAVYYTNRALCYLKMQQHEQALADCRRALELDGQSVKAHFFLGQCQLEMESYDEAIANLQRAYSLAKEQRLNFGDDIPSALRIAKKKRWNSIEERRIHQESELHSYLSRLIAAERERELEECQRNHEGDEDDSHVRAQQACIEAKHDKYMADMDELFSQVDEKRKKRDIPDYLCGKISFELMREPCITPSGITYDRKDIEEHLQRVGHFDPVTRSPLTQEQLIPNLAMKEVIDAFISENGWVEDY
protocol-text: FP
Ends that are not written are not given here. * marks the point of attachment. FITC = O=C1OC2(c3ccc(O)cc3Oc3cc(O)ccc32)c2ccc(NC(=S)*)cc21; Ahx = NCCCCCC(=O)O
value-kind: pKd
Note: pKd values are expressed as the negative base-10 logarithm of concentration in M.

Prompt: Look up pKd for this binder: {FITC-Ahx}-GSGPTIEEVD (C-terminal tail of HSP70; tracer of the fluorescence polarisation assay; also called HSP70 peptide tracer; source: synthetic peptide (Lifetein or Genscript)) [N-FITC-Ahx-GSGPTIEEVD]
Response: 4.18
